- Test system: SF-268
- Assay info: NCI tumour cell line growth inhibition, 48 h
Calls of active or inactive are those of the source. Cut-off read from the data, not from the text of the source: active = GI50 up to about 1.1 µM and inactive = higher.
Please provide measured GI50 for the entries that follow.

These recorded examples may help you get a feel for the data.
Compound	Result
C[C@]12CC[C@H]3[C@@H](CC[C@]4(O)C[C@@H](O)CC[C@]34/C=N/O)[C@@]1(O)CC[C@@H]2C1=COC(=O)C1	0.0728 µM (active)
C[n+]1c2ccccc2c(NC(CCC(N)=O)C(=O)O)c2ccccc21 (stereo not given)	> 100 µM (inactive)
C#C/C=C\CCCC/C=C\C#CC#CCCCC#CC#C[C@H](COS(=O)(=O)O)OS(=O)(=O)O	> 100 µM (inactive)
CN(C)CCNc1c2ccccc2c2c3c(cccc13)C(=O)N(CCN(C)C)C2=O	0.22 µM (active)

# ---- query compound ----
Quick one: GI50 of C=C1C(=O)C23C(O)CC4C5(C)CCCC4(C(O)OC5)C2C(OC(C)=O)CC1C3O (stereo not given) ?
13.3 µM (inactive)
